# credit: the supplement of paper PMC8728848

systemName: GalNAc(b1-4)GlcNAc(b1-2)Man(a1-3)[GalNAc(b1-4)GlcNAc(b1-2)Man(a1-6)]Man(b1-4)GlcNAc(b1-4)GlcNAc
assayText: glycan array binding signal (z-score within array); higher = stronger binding
conditionLabel: glycan notation: IUPAC condensed, linker removed
This excerpt belongs to a sample that is enriched for the strongest signals.
Here, each record is paired with measured glycan array binding signal (z-score) data.

{"binder": "Adiponectin (Rattus norvegicus), Q8K3R4 (protein) MLLLQALLFLLILPSHEGITATEGPGALVPPPKETCAGWMAGIPGYPGHNGIPGRDGRDGTPGEKGEKGDAGVLGPKGDPGDAGMTGAEGPRGFPGTPGRKGEPGEAAYMYHSAFSVGLETRVTVPNVPIRFTKIFYNQQNHYDGSTGKFHCNIPGLYYFSYHITVYMKDVKVSLFKKDKAVLFTYDQYQEKNVDQASGSMLLHLEVGDQVWLQVYGEGDNNGLYADNVNDSTFTGFLLYHDTN", "glycan array binding signal (z-score)": 4.32}
{"binder": "SP15308A-bot-339-19-339 (Bacteroides ovatus) (protein) ACNNEWEDEQYEQYISFKSPIPAGGEGVTDIYVRYKEDGKVTYRLPIVVSGSTTNTLDREVHIAVDKDTLETLNIERFSIHRPGLWYTALEEDKYDFPKTVHISAGSSVEQLNIDFNLQGIDMLEKWVLPLTIVDDPSYNYKSHPRKNYAKALLRVIPFNNYSGSYTSSAMKVYTYINGKPDTNARTANKRTGYVINDNTVFFYAGLISEDLDKEVREKYKINVHFNEDGTLHMEQGDPTNKMKFELIGTPTYSKTSVMDATRPYLERRYVQIMFEYDFEDFSYGGNGVDVIPIKYKVEGSMTLQRNINTQIPDEDQQIEW", "glycan array binding signal (z-score)": 1.54}
{"binder": "OGAA (protein) MVQKESQATLEERESELSSNPAASAGASLEPPAAPAPGEDNPAGAGGAAVAGAAGGARRFLCGVVEGFYGRPWVMEQRKELFRRLQKWELNTYLYAPKDDYKHRMFWREMYSVEEAEQLMTLISAAREYEIEFIYAISPGLDITFSNPKEVSTLKRKLDQVSQFGCRSFALLFADIDHNMCAADKEVFSSFAHAQVSITNEIYQYLGEPETFLFCPTEYCGTFCYPNVSQSPYLRTVGEKLLPGIEVLWTGPKVVSKEIPVESIEEVSKIIKRAPVIWDNIHANDYDQKRLFLGPYKGRSTELIPRLKGVLTNPNCEFEANYVAIHTLATWYKSNMNGVRKDVVMTDSEDSTVSIQIKLENEGSDEDIETDVLYSPQMALKLALTEWLQEFGVPHQY", "glycan array binding signal (z-score)": -0.075}
